assay: soluble fraction after stress (log2 fold change); higher = more stays soluble; pooled small domains, quantitative proteomics; settings: stress: 50 degC
Field: class. Source value: soluble fraction (log2). Ranges: lower bin = under -0.3, middle bin = from -0.3 up to 0.004, upper bin = 0.004 and over

Completed entries (count: 5):
HMSPIKAGDLVKITGTKYYRGQTIPSWVKAKNWFVHSVSGDRAVINKSEDGKNAIMSPVKVSNLALVT    middle bin
HMEWTDIPTHKVPNVVGKSVEEAKKKLSKFTIEYSGTGEKVVAQSPDAGEKLEEGGTVRLLL    upper bin
HMTGIQDVPALETRRVGNTFFFDRATDVQVYDLQGRLLQQARKVTSVSIGHLQQGVYVLTDGRASVKVQ    lower bin
HMQNNKITIYISGAVNRPGIVTIESDKRLYDAVELLGGTTKEADLNGVNLSVRLEDEQHYIIPKIGEA    middle bin
HMQKDAYVPDIISKLKSSRMIVVEGTIYPLLTRLKNTGLLSYRWEESLQGPPRKYYSITEQG    upper bin

Now for a further sequence.
Input line: GET /class?item= HMELTVPDFTNMSLEDAINLAEKRDVRLEVTDSVFVKRLGRGFIYSQNPVAGSKVKKGRRILITINAIN
Output line: lower bin
